# assaySystem: PI3K gamma (Homo sapiens)
# Sequence (P48736 whole entry, species assumed): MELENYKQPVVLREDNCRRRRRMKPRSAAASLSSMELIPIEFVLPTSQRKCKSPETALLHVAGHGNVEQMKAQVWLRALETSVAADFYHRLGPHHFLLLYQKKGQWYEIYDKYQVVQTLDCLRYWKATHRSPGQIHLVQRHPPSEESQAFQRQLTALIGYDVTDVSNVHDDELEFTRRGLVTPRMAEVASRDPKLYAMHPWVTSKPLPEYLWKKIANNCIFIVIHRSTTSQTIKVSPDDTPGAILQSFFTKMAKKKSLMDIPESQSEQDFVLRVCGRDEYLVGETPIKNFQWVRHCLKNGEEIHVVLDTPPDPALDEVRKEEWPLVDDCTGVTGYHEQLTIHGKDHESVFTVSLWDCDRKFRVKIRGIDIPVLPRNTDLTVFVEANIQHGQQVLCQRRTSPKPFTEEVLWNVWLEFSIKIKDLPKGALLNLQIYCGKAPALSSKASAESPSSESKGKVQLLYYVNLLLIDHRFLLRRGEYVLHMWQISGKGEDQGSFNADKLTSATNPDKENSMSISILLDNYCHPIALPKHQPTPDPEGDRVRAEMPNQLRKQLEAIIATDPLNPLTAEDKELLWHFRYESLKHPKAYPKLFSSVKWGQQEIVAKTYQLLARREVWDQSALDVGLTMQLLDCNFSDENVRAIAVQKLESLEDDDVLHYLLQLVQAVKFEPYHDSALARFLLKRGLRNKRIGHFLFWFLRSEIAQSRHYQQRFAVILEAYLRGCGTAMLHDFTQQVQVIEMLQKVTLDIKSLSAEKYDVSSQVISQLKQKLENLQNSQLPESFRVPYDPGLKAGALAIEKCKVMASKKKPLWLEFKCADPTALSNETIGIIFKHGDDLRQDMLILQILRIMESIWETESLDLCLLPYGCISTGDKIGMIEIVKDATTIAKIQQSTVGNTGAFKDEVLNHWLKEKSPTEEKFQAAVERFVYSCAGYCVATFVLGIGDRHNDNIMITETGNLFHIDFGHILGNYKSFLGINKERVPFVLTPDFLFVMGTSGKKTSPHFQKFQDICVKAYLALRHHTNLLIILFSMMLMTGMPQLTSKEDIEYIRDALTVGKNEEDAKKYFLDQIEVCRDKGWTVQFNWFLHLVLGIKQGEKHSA
# assayName: PI3 Kinase Assay (PI3K gamma)
# Format: biochemical
# details: 1 h
recordedEndpoint: inhibition at 30 µM (%)

Field: example entries. Status: answers known.
molecule="COC(=O)c1sc2ncnc(Oc3c(C)noc3C)c2c1C [Example 39]" assaysystem="PI3K gamma (Homo sapiens)" recordedendpoint="inhibition at 30 µM" numericresult=15
molecule="Cc1noc(C)c1Oc1ncnc2sccc12 [Example 35]" assaysystem="PI3K gamma (Homo sapiens)" recordedendpoint="inhibition at 30 µM" numericresult=11
molecule="c1ccc2c(Oc3ccsc3)ncnc2c1 [Example 30, 4-(Thiophen-3-yloxy)quinazoline]" assaysystem="PI3K gamma (Homo sapiens)" recordedendpoint="inhibition at 30 µM" numericresult=55

a: CC(=O)c1ccccc1Oc1ncc(Br)cn1 [compound 44]
b: Cc1noc(C)c1Oc1ncnc2ccccc12 [Example 26]
c: COC(=O)c1sc2ncnc(Oc3cccc(C#N)c3)c2c1C [Example 38]
Q) Arrange the 3 entries by inhibition at 30 µM so the values rise. Provide the labels, sequenced as the question asks.
A) b, c, a

----------
# assaySystem: PI3K gamma (Homo sapiens)
# assayName: PI3 Kinase Assay (PI3K gamma)
# Type: biochemical
# details: 1 h
recordedEndpoint: inhibition at 30 µM (%)

compound="COC(=O)c1sc2ncnc(Oc3cccc([N+](=O)[O-])c3)c2c1C [Example 37]" assaysystem="PI3K gamma (Homo sapiens)" recordedendpoint="inhibition at 30 µM" numericresult=16

I: Clc1ccc(Oc2ncnc3ccccc23)cn1 [Example 25, 4-(6-Chloropyridin-3-yloxy)quinazoline]
II: c1ccc2c(Oc3ccc4[nH]ccc4c3)ncnc2c1 [Example 29, 4-(1H-Indol-5-yloxy)quinazoline]
III: c1ccc2c(Oc3cncnc3)ncnc2c1 [Example 31, 4-(Pyrimidin-5-yloxy)quinazoline]
IV: FC(F)(F)c1ccc(Oc2ncnc3ccccc23)cc1 [Example 21]
Q) Please give the order of these compounds when sorted by inhibition at 30 µM, largest value leading. Provide the labels, sequenced as the question asks.
A) III, II, I, IV
(III: 53%, II: 21%, I: 11%, IV: 6%)

----------
# assaySystem: PI3K alpha (Homo sapiens, UniProt P42336)
# Sequence (P42336 whole entry, species assumed): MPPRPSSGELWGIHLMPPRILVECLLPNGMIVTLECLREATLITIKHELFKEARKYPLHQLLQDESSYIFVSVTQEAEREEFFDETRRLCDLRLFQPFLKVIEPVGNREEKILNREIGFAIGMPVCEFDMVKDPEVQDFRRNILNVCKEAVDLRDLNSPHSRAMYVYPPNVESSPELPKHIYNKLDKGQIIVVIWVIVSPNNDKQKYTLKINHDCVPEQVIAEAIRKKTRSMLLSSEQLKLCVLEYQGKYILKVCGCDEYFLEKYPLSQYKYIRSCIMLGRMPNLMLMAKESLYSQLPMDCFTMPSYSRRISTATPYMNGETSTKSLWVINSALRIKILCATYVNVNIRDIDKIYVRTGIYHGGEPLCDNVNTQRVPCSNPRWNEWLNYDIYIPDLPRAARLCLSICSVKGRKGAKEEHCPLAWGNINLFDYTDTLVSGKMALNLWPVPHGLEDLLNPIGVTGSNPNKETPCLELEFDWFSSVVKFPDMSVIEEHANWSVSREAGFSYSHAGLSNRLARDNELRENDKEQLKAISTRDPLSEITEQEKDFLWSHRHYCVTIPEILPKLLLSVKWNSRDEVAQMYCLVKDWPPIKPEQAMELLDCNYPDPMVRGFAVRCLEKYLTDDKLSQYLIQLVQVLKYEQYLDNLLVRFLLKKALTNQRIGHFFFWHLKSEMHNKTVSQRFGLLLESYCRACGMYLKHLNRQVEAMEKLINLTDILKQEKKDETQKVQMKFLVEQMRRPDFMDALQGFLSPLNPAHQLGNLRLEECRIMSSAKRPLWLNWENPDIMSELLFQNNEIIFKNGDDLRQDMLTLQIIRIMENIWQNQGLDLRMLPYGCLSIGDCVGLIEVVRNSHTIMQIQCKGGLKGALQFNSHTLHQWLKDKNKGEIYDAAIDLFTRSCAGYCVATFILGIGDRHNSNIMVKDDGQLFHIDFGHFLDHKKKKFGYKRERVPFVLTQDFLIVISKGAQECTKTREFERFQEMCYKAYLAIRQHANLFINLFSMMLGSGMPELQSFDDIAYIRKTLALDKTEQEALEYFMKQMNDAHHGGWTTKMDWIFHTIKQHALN
# Sequence (P27986 whole entry partner, species assumed): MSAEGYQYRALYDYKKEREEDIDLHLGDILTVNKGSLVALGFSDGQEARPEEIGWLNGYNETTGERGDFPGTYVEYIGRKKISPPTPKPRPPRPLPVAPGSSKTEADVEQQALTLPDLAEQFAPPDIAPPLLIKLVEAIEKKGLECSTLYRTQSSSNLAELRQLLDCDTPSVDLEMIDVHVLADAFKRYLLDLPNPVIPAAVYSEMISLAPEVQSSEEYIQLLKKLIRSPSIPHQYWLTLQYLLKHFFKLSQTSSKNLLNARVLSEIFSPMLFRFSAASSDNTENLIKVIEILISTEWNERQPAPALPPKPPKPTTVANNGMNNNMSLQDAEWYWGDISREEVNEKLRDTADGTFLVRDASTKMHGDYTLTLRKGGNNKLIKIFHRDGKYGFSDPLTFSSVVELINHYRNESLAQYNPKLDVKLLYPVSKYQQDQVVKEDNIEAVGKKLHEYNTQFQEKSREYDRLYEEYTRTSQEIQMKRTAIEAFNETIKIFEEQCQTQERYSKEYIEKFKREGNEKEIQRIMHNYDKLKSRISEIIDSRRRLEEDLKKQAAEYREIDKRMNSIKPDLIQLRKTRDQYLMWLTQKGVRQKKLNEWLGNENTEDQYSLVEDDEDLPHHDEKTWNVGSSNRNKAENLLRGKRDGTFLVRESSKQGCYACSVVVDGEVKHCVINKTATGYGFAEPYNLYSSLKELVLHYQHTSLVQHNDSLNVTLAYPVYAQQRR
# assayName: PI3 Kinase Assay (PI3K alpha)
# Format: biochemical
recordedEndpoint: inhibition at 30 µM (%)

Field: example entries. Status: answers known.
compound=c1ccc2c(Oc3ccsc3)ncnc2c1 uom=% numericresult=87
compound=COc1ncccc1Oc1ccn(C)c(=O)n1 uom=% numericresult=46
compound=COC(=O)c1sc2ncnc(Oc3c(C)noc3C)c2c1C uom=% numericresult=24
compound=Cn1ccc(Oc2ccccc2)nc1=O uom=% numericresult=32
compound=c1ccc2c(Oc3cncnc3)ncnc2c1 uom=% numericresult=33
compound=O=[N+]([O-])c1cccc(Oc2ncnc3ccccc23)c1 uom=% numericresult=24
compound=O=[N+]([O-])c1cccc(Oc2ncnc3sccc23)c1 uom=% numericresult=14
compound=Cc1noc(C)c1Oc1ncnc2sccc12 uom=% numericresult=26

I: CC(=O)c1ccc(Oc2ncnc3ccccc23)cc1
II: COc1ncccc1Oc1ncnc2ccccc12
Q) Of the two listed items, I and II , which carries the larger inhibition at 30 µM figure? Answer by stating the label of the chosen item.
A) I
(I: 34%, II: 22%)

----------
Reported inhibition at 30 µM values for a set of molecules
# assaySystem: PI3K gamma (Homo sapiens)
# assayName: PI3 Kinase Assay (PI3K gamma)
# Format: biochemical
# details: 1 h

compound=Cn1ccc(Oc2ccccc2)nc1=O result="< 10%"
compound=COc1ncccc1Oc1ncc(Br)cn1 result="< 10%"

Now consider a different molecule.
Q) State the recorded inhibition at 30 µM for this entry: COc1ncccc1Oc1ncnc2ccccc12
A) < 10%

Provenance of the data: patent US20090291971A1
